target: D(1A) dopamine receptor (Homo sapiens); assay: DRUGMATRIX: Dopamine D1 radioligand binding (ligand: [3H] SCH-23390); format: cell membranes, CHO, Membrane; settings: Not Active = under 50% inhibition at 10 µM; read-out: Ki
Sequence (P21728 whole entry): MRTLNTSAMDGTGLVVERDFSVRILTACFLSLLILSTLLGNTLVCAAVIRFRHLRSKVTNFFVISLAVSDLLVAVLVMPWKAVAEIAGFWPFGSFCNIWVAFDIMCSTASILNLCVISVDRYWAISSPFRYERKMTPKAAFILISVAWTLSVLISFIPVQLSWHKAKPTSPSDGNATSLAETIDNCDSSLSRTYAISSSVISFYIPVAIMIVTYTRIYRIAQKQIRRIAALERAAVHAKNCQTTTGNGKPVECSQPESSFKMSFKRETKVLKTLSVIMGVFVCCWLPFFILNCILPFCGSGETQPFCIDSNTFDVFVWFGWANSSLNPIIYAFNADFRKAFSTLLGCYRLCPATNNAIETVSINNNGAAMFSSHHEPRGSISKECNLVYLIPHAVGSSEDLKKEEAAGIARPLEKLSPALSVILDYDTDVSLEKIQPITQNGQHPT
value kind: Ki (nM)
Answer format: numeric, nM implied, no suffix.

Example results:
molecule	system under test	value kind	numeric result
CN1CCC(=C2c3ccccc3CC(=O)c3sccc32)CC1 [KETOTIFEN]	D(1A) dopamine receptor (Homo sapiens)	Ki	436
CN(C)CCC=C1c2ccccc2CCc2ccccc21 [AMITRIPTYLINE]	D(1A) dopamine receptor (Homo sapiens)	Ki	178

Attention now shifts to the item below.
q: Reported Ki, molecule CC(C)C[C@H]1C(=O)N2CCC[C@H]2[C@]2(O)O[C@](NC(=O)[C@@H]3C=C4c5cccc6[nH]cc(c56)C[C@H]4N(C)C3)(C(C)C)C(=O)N12 [ERGOCRYPTINE] : ____
a: 202
